tested on: dopamine transporter (DAT); experiment: Binding affinity for the dopamine transporter; details: selectivity ratio from the IC50 values for DAT and SERT
Assay Metric: DAT/SERT

- CON(C)C(=O)C1C(c2ccc(F)cc2)CC2CCC1N2CCC[N+]12CC[S][Re-]13(=[O])[S]CC[N]3C(=O)C2 (stereo not drawn): 80
- CCC(=O)C1C(c2ccc(F)cc2)CC2CCC1N2CCC[N+]12CC[S][Re-]13(=[O])[S]CC[N]3C(=O)C2 (stereo not drawn): 249
- COC(=O)C1C(c2ccc(F)cc2)CC2CCC1N2CCCN1CC[S][Re]2(=[O])[S]CC[N]2C(=O)C1 (single isomer, unassigned) [Compound O-927]: 40
- COC(=O)C1C(c2ccc(F)cc2)CC2CCC1N2CCCN1CC[S][Re]2(=[O])[S]CC[N]2C(=O)C1 (single isomer, unassigned) [Compound O-928]: 10
- COC(=O)C1C(c2ccc(F)cc2)CC2CCC1N2CCC[N+]12CC[S][Re-]13(=[O])[S]CC[N]3C(=O)C2 (stereo not drawn) [Compound O-1186]: 340
- COC(=O)C1C(c2ccc(F)cc2)CC2CCC1N2CCC[N+]12CC[S][Re-]13(=[O])[S]CC[N]3C(=O)C2 (mixture of isomers) [Compound O-861]: 28
- COC(=O)C1=C(c2ccc3ccccc3c2)CC2CCC1N2CCC[N+]12CC[S][Re-]13(=[O])[S]CC[N]3C(=O)C2 (mixture of isomers): 15
- CCC(=O)C1C(c2ccc(Cl)c(Cl)c2)CC2CCC1N2CCCN1CC[S][Re]2(=[O])[S]CC[N]2C(=O)C1 (mixture of isomers): 63
- COC(=O)C1=C(c2ccc(Cl)c(Cl)c2)CC2CCC1N2CCC[N+]12CC[S][Re-]13(=[O])[S]CC[N]3C(=O)C2 (stereo not drawn): 28
- CCC(=O)C1C(c2ccc(F)cc2)CC2CCC1N2CCCN1CC[S][Re]2(=[O])[S]CC[N]2C(=O)C1 (mixture of isomers): 34
- COC(=O)C1C(c2ccc(Cl)c(Cl)c2)CC2CCC1N2CCC[N+]12CC[S][Re-]13(=[O])[S]CC[N]3C(=O)C2 (stereo not drawn): 64
- COC(=O)C1C(c2ccc3ccccc3c2)CC2CCC1N2CCC[N+]12CC[S][Re-]13(=[O])[S]CC[N]3C(=O)C2 (mixture of isomers): 16

Values from patent US6548041B1
